- Tested on: Escherichia coli ATCC BAA-2523
- Assay type: cell-based
- particulars: ATCC BAA-2523
Bridge positions count the residues as written; N and C are the ends. Square brackets hold non-standard residues; d marks the D form. Peptide text beside a SMILES is read from it. * marks the point of attachment. Heptanoyl(6-Me) = CC(C)CCCCC(=O)*; dOrn = NCCC[C@@H](N)C(=O)O; Heptanoyl = CCCCCCC(=O)*; Octanoyl = CCCCCCCC(=O)*; Dab = NCC[C@H](N)C(=O)O; Dap = NC[C@H](N)C(=O)O
value-type: MIC

Ask | If you can, please state the reported MIC value of CCCCCCC(=O)N[C@@H](CCN)C(=O)N[C@H](C(=O)N[C@H](CCCN)C(=O)N[C@H]1CCNC(=O)[C@H]([C@@H](C)O)NC(=O)[C@H](CCN)NC(=O)[C@H](CCN)NC(=O)[C@H]([C@@H](C)O)NC(=O)[C@@H](Cc2ccccc2)NC(=O)[C@H](CCN)NC1=O)[C@@H](C)O [Compound 24] (Heptanoyl-[Dab]T[dOrn][Dab][Dab][dF]T[Dab][Dab]T; lactam 4-C) .
Reply | ≤0.03 µg/mL

Ask | For CCCCCCCC(=O)N[C@@H](CCN)C(=O)N[C@H](C(=O)N[C@@H](CN)C(=O)N[C@H]1CCNC(=O)[C@H]([C@@H](C)O)NC(=O)[C@H](CCN)NC(=O)[C@H](CCN)NC(=O)[C@H]([C@@H](C)O)NC(=O)[C@@H](Cc2ccccc2)NC(=O)[C@H](CCN)NC1=O)[C@@H](C)O [Compound 8] (Octanoyl-[Dab]T[Dap][Dab][Dab][dF]T[Dab][Dab]T; lactam 4-C) , what is its reported MIC?
Reply | ≤0.03 µg/mL

Ask | # get_value(readout='MIC', item= CC(C)CCCCC(=O)N[C@@H](CCN)C(=O)N[C@H](C(=O)N[C@H](CO)C(=O)N[C@H]1CCNC(=O)[C@H]([C@@H](C)O)NC(=O)[C@H](CCN)NC(=O)[C@H](CN)NC(=O)[C@H]([C@@H](C)O)NC(=O)[C@@H](Cc2ccccc2)NC(=O)[C@H](CCN)NC1=O)[C@@H](C)O [Compound 72] ({Heptanoyl(6-Me)}-[Dab]T[dS][Dab][Dab][dF]T[Dap][Dab]T; lactam 4-C) )
Reply | ≤0.03 µg/mL

====

- assay-procedure: Nephrotoxicity assay: in vitro cytotoxicity of HK-2 cells by CCK-8 assay
- Type: cell-based
- particulars: human, HK-2 cells (human renal), 72 h incubation with drug-containing medium
Bridge positions count the residues as written; N and C are the ends. Square brackets hold non-standard residues; d marks the D form. Peptide text beside a SMILES is read from it. * marks the point of attachment. Dab(CH2SO3H) = N[C@@H](CCNCS(=O)(=O)O)C(=O)O; Heptanoyl(6-Me) = CC(C)CCCCC(=O)*; dOrn = NCCC[C@@H](N)C(=O)O; Orn = NCCC[C@H](N)C(=O)O; Dab = NCC[C@H](N)C(=O)O; Dap = NC[C@H](N)C(=O)O
value-type: IC50 at 72 h

Ask | Recorded IC50 at 72 h for CC(C)CCCCC(=O)N[C@@H](CCN)C(=O)N[C@H](C(=O)N[C@H](CCCN)C(=O)N[C@H]1CCNC(=O)[C@H]([C@@H](C)O)NC(=O)[C@H](CCN)NC(=O)[C@H](CCN)NC(=O)[C@H]([C@@H](C)O)NC(=O)[C@@H](Cc2ccccc2)NC(=O)[C@H](CCN)NC1=O)[C@@H](C)O [Compound 22] ({Heptanoyl(6-Me)}-[Dab]T[dOrn][Dab][Dab][dF]T[Dab][Dab]T; lactam 4-C) , please?
Reply | > 500 µg/mL

Ask | Returns the measured IC50 at 72 h for the input molecule. Input: CC(C)CCCCC(=O)N[C@@H](CCN)C(=O)N[C@H](C(=O)N[C@@H](CCCN)C(=O)N[C@H]1CCNC(=O)[C@H]([C@@H](C)O)NC(=O)[C@H](CCN)NC(=O)[C@H](CCN)NC(=O)[C@H]([C@@H](C)O)NC(=O)[C@@H](Cc2ccccc2)NC(=O)[C@H](CCN)NC1=O)[C@@H](C)O [Compound 27] ({Heptanoyl(6-Me)}-[Dab]T[Orn][Dab][Dab][dF]T[Dab][Dab]T; lactam 4-C)
Reply | > 500 µg/mL

Ask | I am curious: what IC50 at 72 h value has been reported for CC(C)CCCCC(=O)N[C@@H](CCN)C(=O)N[C@H](C(=O)N[C@@H](CN)C(=O)N[C@H]1CCNC(=O)[C@H]([C@@H](C)O)NC(=O)[C@H](CCNCS(=O)(=O)O)NC(=O)[C@H](CCN)NC(=O)[C@H]([C@@H](C)O)NC(=O)[C@@H](Cc2ccccc2)NC(=O)[C@H](CCN)NC1=O)[C@@H](C)O [Compound 120] ({Heptanoyl(6-Me)}-[Dab]T[Dap][Dab][Dab][dF]T[Dab][Dab(CH2SO3H)]T; lactam 4-C) ?
Reply | > 500 µg/mL
